These measurements were taken from patent US20220040297A1.

Molecular target: T1, CD3ε homodimer protein (human, UniProt P07766 23-126, limits assumed, sulfo-tag or biotin label in some ECL assays)
T1 construct: also called human CD3ε homodimer protein; CD3 (CD3ε)
T1 sequence (P07766 23-126 limits assumed): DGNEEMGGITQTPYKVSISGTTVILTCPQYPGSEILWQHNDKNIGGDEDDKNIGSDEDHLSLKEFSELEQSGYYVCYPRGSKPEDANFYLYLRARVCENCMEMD
Assay: SPR, CD3ε homodimer on chip;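 further: biacore SPR with antibody variants flowed as analyte over amine-coupled CD3ε homodimer on a CM chip, bound amount of each single-residue H chain variant over that of parent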
The entries below come with measured ratio of amounts bound vs CE115HA000 values attached.
parameter: ratio of amounts bound vs CE115HA000

binder	reported_measurement
CE115HA000 K52W (antibody, name in Kabat numbering, V domains shown) VH: QVQLVESGGGVVQPGRSLRLSCAASGFTFSNAWMHWVRQAPGKGLEWVAQIWAKSNNYATYYAESVKGRFTISRDDSKNSLYLQMNSLKTEDTAVYYCRYVHYGAYYGVDAWGQGTTVTVSS VL: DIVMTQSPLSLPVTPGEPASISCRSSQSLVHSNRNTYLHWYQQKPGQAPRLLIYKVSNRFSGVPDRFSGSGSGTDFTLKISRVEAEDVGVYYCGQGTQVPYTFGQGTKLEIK	0.22
CE115HA000 Y97P (antibody, name in Kabat numbering, V domains shown) VH: QVQLVESGGGVVQPGRSLRLSCAASGFTFSNAWMHWVRQAPGKGLEWVAQIKAKSNNYATYYAESVKGRFTISRDDSKNSLYLQMNSLKTEDTAVYYCRYVHPGAYYGVDAWGQGTTVTVSS VL: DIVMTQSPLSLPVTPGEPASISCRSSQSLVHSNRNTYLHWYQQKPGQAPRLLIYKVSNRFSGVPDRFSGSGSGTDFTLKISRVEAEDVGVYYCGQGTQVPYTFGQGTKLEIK	0.11
CE115HA000 A102Y (antibody, name in Kabat numbering, V domains shown) VH: QVQLVESGGGVVQPGRSLRLSCAASGFTFSNAWMHWVRQAPGKGLEWVAQIKAKSNNYATYYAESVKGRFTISRDDSKNSLYLQMNSLKTEDTAVYYCRYVHYGAYYGVDYWGQGTTVTVSS VL: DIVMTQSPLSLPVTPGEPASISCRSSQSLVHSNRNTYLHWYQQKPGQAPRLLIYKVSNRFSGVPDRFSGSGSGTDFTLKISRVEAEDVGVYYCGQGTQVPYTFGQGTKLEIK	0.91
